- Tested on: BEAS-2B
- methodDescription: Cytotoxicity against human BEAS-2B cells assessed as growth inhibition incubated for 68 hrs by MTT assay
- Type: cell-based
Numbered stars: 1 amine (or outer) side, 2 acyl side, 3 side chain; on linkers, the order of the positions; unused ones are H or OH. Bridge positions count the residues as written; N and C are the ends. Square brackets hold non-standard residues; d marks the D form. Peptide text beside a SMILES is read from it. I, II: the chains in the order shown. Actinocin(1to9) = Cc1c2oc3c(C)ccc(C(=O)[*:2])c3nc-2c(C(=O)[*:1])c(N)c1=O; NMeV = CN[C@H](C(=O)O)C(C)C; Sar = CNCC(=O)O
measuredEndpoint: IC50 (nM)
Report the figure in nM without appending any unit label.

### Prompt Any idea what IC50 was measured for `CC(C)[C@H]1C(=O)O[C@H](C)[C@H](NC(=O)c2c3nc4c(C(=O)N[C@@H]5C(=O)N[C@H](C(C)C)C(=O)N6CCC[C@H]6C(=O)N(C)CC(=O)N(C)[C@@H](C(C)C)C(=O)O[C@@H]5C)ccc(I)c4oc-3c(I)c(=O)c2N)C(=O)N[C@H](C(C)C)C(=O)N2CCC[C@H]2C(=O)N(C)CC(=O)N1C` ?
### Response 500

### Prompt If you can, please state the reported IC50 value of Cc1c2oc3c(C)ccc(C(=O)N[C@@H]4C(=O)N[C@H](C(C)C)C(=O)N5CCC[C@H]5C(=O)N(C)CC(=O)N(C)[C@@H](C(C)C)C(=O)O[C@@H]4C)c3nc-2c(C(=O)N[C@@H]2C(=O)N[C@H](C(C)C)C(=O)N3CCC[C@H]3C(=O)N(C)CC(=O)N(C)[C@@H](C(C)C)C(=O)O[C@@H]2C)c(N)c1=O [DACTINOMYCIN] (I: T[dV]P[Sar][NMeV] / II: T[dV]P[Sar][NMeV]; ester I:1-I:C, II:1-II:C; linker I:N-II:N via Actinocin(1to9)) .
### Response 700

### Prompt I am curious: what IC50 value has been reported for `COc1c2oc3c(OC)ccc(C(=O)N[C@@H]4C(=O)N[C@H](C(C)C)C(=O)N5CCC[C@H]5C(=O)N(C)CC(=O)N(C)[C@@H](C(C)C)C(=O)O[C@@H]4C)c3nc-2c(C(=O)N[C@@H]2C(=O)N[C@H](C(C)C)C(=O)N3CCC[C@H]3C(=O)N(C)CC(=O)N(C)[C@@H](C(C)C)C(=O)O[C@@H]2C)c(N)c1=O` ?
### Response 2700
